B1: CPEB3 Ribozyme (parent)
chain: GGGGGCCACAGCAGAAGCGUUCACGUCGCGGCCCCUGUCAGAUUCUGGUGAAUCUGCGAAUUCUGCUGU

Variants of: B1
assay_method_text: self-cleavage, relative activity (ratio to wild type); higher = more cleavage; co-transcriptional
Would you mind telling me the reported self-cleavage of each entry?
One number for each entry.

// known answers, use as guide
INSERT INTO measurements (variant_designation, endpoint_label, endpoint_result) VALUES
  ('G4A U53G', 'self-cleavage', 0.517),
  ('C33G U44A', 'self-cleavage', 0.29),
  ('G11U A52C', 'self-cleavage', 0.761),
  ('C18A C57G', 'self-cleavage', 0.114),
  ('U38C U61G', 'self-cleavage', 0.759);

List reported self-cleavage for each of these variants:
1. G4U A13G
2. G14A A42U
3. G5U G31U
4. C32U C54G
5. C24A G47U
6. U26G G65U
7. G5A U62G

(A)
1: 0.649; 2: 0.329; 3: 0.0958; 4: 0.819; 5: 0.754; 6: 0.53; 7: 0.447
